Target: mouse B6 class I antigens (D^b or K^b molecules on the surface of RMA-S cells) (mouse, UniProt P01887 21-119)
Sequence (P01887 21-119): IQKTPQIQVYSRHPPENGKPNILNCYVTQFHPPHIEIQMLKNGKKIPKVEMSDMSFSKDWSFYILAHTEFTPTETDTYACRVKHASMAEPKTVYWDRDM
Assay: binding of 9-mer peptides within p117-139 to mouse B6 (H-2^b) class I; RMA-S cell assay, flow cytometry
Readings of Binding Affinity to Mouse MHC Class I (%) for the listed binders
QUANTITY_NAME: Binding Affinity to Mouse MHC Class I (%)

BINDER: QASSGQARM [WT1 peptide P119-127 (QASSGQARM)]
VALUE_REPORTED: 2%

BINDER: PSQASSGQA [WT1 peptide P117-125 (PSQASSGQA)]
VALUE_REPORTED: 2%

BINDER: SSGQARMFP [WT1 peptide P121-129 (SSGQARMFP)]
VALUE_REPORTED: 1%

BINDER: ARMFPNAPY [WT1 peptide P125-133 (ARMFPNAPY)]
VALUE_REPORTED: 1%

BINDER: NAPYLPSCL [WT1 peptide P130-138 (NAPYLPSCL)]
VALUE_REPORTED: 79%

BINDER: QARMFPNA [WT1 peptide P124-132 (printed QARMFPNA)]
VALUE_REPORTED: 1%

BINDER: APYLPSCLE [WT1 peptide P131-139 (APYLPSCLE)]
VALUE_REPORTED: 1%

BINDER: FPNAPYLPS [WT1 peptide P128-136 (FPNAPYLPS)]
VALUE_REPORTED: 1%

BINDER: MFPNAPYLP [WT1 peptide P127-135 (MFPNAPYLP)]
VALUE_REPORTED: 2%

BINDER: PNAPYLPSC [WT1 peptide P129-137 (PNAPYLPSC)]
VALUE_REPORTED: 1%

BINDER: SQASSGQAR [WT1 peptide P118-126 (SQASSGQAR)]
VALUE_REPORTED: 2%

BINDER: ASSGQARMF [WT1 peptide P120-128 (ASSGQARMF)]
VALUE_REPORTED: 1%
